For each of the compounds below, state its inhibition at 1 µM.
Target: HDAC1 (Homo sapiens, UniProt Q13547)
Sequence (Q13547 whole entry): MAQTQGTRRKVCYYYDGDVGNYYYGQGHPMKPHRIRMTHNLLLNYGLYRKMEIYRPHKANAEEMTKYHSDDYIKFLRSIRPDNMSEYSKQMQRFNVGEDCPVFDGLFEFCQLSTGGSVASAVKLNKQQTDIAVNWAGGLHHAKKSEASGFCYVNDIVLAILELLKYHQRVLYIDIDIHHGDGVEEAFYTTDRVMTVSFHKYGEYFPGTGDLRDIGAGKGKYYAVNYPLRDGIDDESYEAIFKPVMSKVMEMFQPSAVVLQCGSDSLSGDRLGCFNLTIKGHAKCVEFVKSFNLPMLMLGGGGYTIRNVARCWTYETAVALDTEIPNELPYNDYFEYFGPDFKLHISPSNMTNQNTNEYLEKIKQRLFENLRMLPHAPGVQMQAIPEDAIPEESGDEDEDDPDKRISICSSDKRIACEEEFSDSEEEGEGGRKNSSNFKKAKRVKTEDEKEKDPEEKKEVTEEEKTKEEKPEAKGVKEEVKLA
Experiment: In vitro HDAC inhibitory activity assay, recombinant HDAC1 (fluorogenic substrate ZMAL)
Type: biochemical
Design: purchased BPS Biosciences
Conditions: 1 µM; read-out: HDAC1 % inhib. at given conc.
Express it in %; write the number only.

Item O=C(COc1ccc(C(=O)Nc2cccc(C(=O)NO)c2)cc1)NCCCOCCOCCOCCCNc1cccc2c1C(=O)N(C1CCC(=O)NC1=O)C2=O (stereo not drawn) has what recorded inhibition at 1 µM?
13.9

Item O=C(COc1ccc(CNc2cc(C(=O)NO)ccc2Cl)cc1)NCCCCCNc1cccc2c1C(=O)N(C1CCC(=O)NC1=O)C2=O (stereo not drawn) has what recorded inhibition at 1 µM?
10.1

Item COc1ccc(C(=O)NO)cc1NC(=O)c1ccc(NC(=O)CCCCCNC(=O)CC23CC4CC(CC(C4)C2)C3)cc1 has what recorded inhibition at 1 µM?
47.7

Item Cc1ncsc1-c1ccc(CNC(=O)[C@@H]2C[C@@H](O)CN2C(=O)[C@@H](NC(=O)CCCCCNC(=O)COc2ccc(CNc3cc(C(=O)NO)ccc3Cl)cc2)C(C)(C)C)cc1 has what recorded inhibition at 1 µM?
6

Item O=C(COc1ccc(C(=O)Nc2cc(C(=O)NO)ccc2Cl)cc1)NCCCOCCOCCOCCCNc1cccc2c1C(=O)N(C1CCC(=O)NC1=O)C2=O (stereo not drawn) has what recorded inhibition at 1 µM?
20.7

Item COc1ccc(C(=O)NO)cc1NC(=O)c1ccc(CNC(=O)CCCCCCCNC(=O)CC23CC4CC(CC(C4)C2)C3)cc1 has what recorded inhibition at 1 µM?
9.8

Item COc1ccc(C(=O)NO)cc1NC(=O)c1ccc(CNC(=O)CCCCCCCNc2cccc3c2C(=O)N(C2CCC(=O)NC2=O)C3=O)cc1 (stereo not drawn) has what recorded inhibition at 1 µM?
22.2

Item O=C(COc1ccc(CNc2cc(C(=O)NO)ccc2Cl)cc1)NCCCCCNC(=O)CC12CC3CC(CC(C3)C1)C2 has what recorded inhibition at 1 µM?
2.3

Item COc1ccc(C(=O)NO)cc1NC(=O)c1ccc(NC(=O)CCCCCCCNC(=O)CC23CC4CC(CC(C4)C2)C3)cc1 has what recorded inhibition at 1 µM?
38.6

----------
Target: HDAC1 (Homo sapiens, UniProt Q13547)
Assay: In vitro HDAC inhibitory activity assay, recombinant HDAC1 (fluorogenic substrate ZMAL)
Format: biochemical
Parameters: purchased BPS Biosciences
Conditions: 10 µM; read-out: HDAC1 % inhib. at given conc.
PARAMETER MEASURED: inhibition at 10 µM (%)
Express it in %; write the number only.

Item COc1ccc(C(=O)NO)cc1NC(=O)c1ccc(CNC(=O)CCCCCCCNc2cccc3c2C(=O)N(C2CCC(=O)NC2=O)C3=O)cc1 (stereo not drawn) has what recorded inhibition at 10 µM?
40.1

Item O=C(COc1ccc(C(=O)Nc2cccc(C(=O)NO)c2)cc1)NCCCOCCOCCOCCCNc1cccc2c1C(=O)N(C1CCC(=O)NC1=O)C2=O (stereo not drawn) has what recorded inhibition at 10 µM?
60

Item COc1ccc(C(=O)NO)cc1NC(=O)c1ccc(CNC(=O)CCCCCCCNC(=O)CC23CC4CC(CC(C4)C2)C3)cc1 has what recorded inhibition at 10 µM?
52.6

Item O=C(COc1ccc(CNc2cc(C(=O)NO)ccc2Cl)cc1)NCCCCCNC(=O)CC12CC3CC(CC(C3)C1)C2 has what recorded inhibition at 10 µM?
40

Item O=C(COc1ccc(C(=O)Nc2cc(C(=O)NO)ccc2Cl)cc1)NCCCOCCOCCOCCCNc1cccc2c1C(=O)N(C1CCC(=O)NC1=O)C2=O (stereo not drawn) has what recorded inhibition at 10 µM?
67.4

Item COc1ccc(C(=O)NO)cc1NC(=O)c1ccc(NC(=O)CCCCCCCNC(=O)CC23CC4CC(CC(C4)C2)C3)cc1 has what recorded inhibition at 10 µM?
30

----------
Target: HDAC6 (Homo sapiens)
Experiment: In vitro HDAC inhibitory activity assay, recombinant HDAC6 (fluorogenic substrate ZMAL)
Type: biochemical
Design: purchased BPS Biosciences
Conditions: Table 2, inhibitors synthesized in this paper (S1); read-out: HDAC6 IC50
PARAMETER MEASURED: pIC50
Here pIC50 is given on a logarithmic scale as minus log10 of the concentration in mol/L.

Item COc1ccc(CNc2cc(C(=O)NO)ccc2OC)cc1 has what recorded pIC50?
6.82

Item O=C(COc1ccc(CNc2cc(C(=O)NO)ccc2Cl)cc1)OCc1ccccc1 has what recorded pIC50?
5.13

----------
Molecular target: UniProt:Q9BY41
Sequence (Q9BY41 whole entry): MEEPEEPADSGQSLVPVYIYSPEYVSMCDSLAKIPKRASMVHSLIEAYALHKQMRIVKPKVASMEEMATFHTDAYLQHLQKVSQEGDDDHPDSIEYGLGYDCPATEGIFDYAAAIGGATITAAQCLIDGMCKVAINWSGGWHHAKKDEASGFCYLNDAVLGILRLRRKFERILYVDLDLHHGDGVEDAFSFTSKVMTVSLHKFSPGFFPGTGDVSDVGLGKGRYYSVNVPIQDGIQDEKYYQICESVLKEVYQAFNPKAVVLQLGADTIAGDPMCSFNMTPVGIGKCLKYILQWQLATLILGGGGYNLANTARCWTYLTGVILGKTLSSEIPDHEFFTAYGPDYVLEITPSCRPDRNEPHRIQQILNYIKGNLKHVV
Assay: In vitro HDAC8 activity assay (Fluor de Lys-HDAC8)
Assay type: biochemical
Design: made in house
Conditions: Table 1, PROTACs
Recorded IC50 determines the group label, using lo = under 0.2 µM, med = from 0.2 µM up to 0.7 µM, hi = 0.7 µM and over

Which class is correct for the following molecule? O=C(COc1ccc(CNc2cc(C(=O)NO)ccc2Cl)cc1)NCCCOCCOCCOCCCNc1cccc2c1C(=O)N(C1CCC(=O)NC1=O)C2=O (stereo not drawn)
med

Which class is correct for the following molecule? COc1ccc(C(=O)NO)cc1NC(=O)c1ccc(CNC(=O)CCCCCCCNc2cccc3c2C(=O)N(C2CCC(=O)NC2=O)C3=O)cc1 (stereo not drawn)
lo

Which class is correct for the following molecule? O=C(COc1ccc(CNc2cc(C(=O)NO)ccc2Cl)cc1)NCCCCCNc1cccc2c1C(=O)N(C1CCC(=O)NC1=O)C2=O (stereo not drawn)
med

Which class is correct for the following molecule? O=C(COc1ccc(C(=O)Nc2cccc(C(=O)NO)c2)cc1)NCCCOCCOCCOCCCNc1cccc2c1C(=O)N(C1CCC(=O)NC1=O)C2=O (stereo not drawn)
hi

Which class is correct for the following molecule? COc1ccc(C(=O)NO)cc1NC(=O)c1ccc(NC(=O)CCCCCNC(=O)CC23CC4CC(CC(C4)C2)C3)cc1
med

Which class is correct for the following molecule? O=C1CCC(N2C(=O)c3cccc(NC(=O)CCCCCn4cc(COc5ccc(CNc6cc(C(=O)NO)ccc6Cl)cc5)nn4)c3C2=O)C(=O)N1 (stereo not drawn)
med

Which class is correct for the following molecule? COc1ccc(C(=O)NO)cc1NC(=O)c1ccc(NC(=O)CCCCCNc2cccc3c2C(=O)N(C2CCC(=O)NC2=O)C3=O)cc1 (stereo not drawn)
lo

Which class is correct for the following molecule? O=C(COc1ccc(C(=O)Nc2cc(C(=O)NO)ccc2Cl)cc1)NCCCOCCOCCOCCCNc1cccc2c1C(=O)N(C1CCC(=O)NC1=O)C2=O (stereo not drawn)
med

Which class is correct for the following molecule? COc1ccc(C(=O)NO)cc1NC(=O)c1ccc(NC(=O)CCCCCCCNc2cccc3c2C(=O)N(C2CCC(=O)NC2=O)C3=O)cc1 (stereo not drawn)
hi

Which class is correct for the following molecule? COc1ccc(C(=O)NO)cc1NC(=O)c1ccc(NC(=O)CCCCCCC(=O)N[C@H](C(=O)N2C[C@H](O)C[C@H]2C(=O)NCc2ccc(-c3scnc3C)cc2)C(C)(C)C)cc1
lo

Which class is correct for the following molecule? Cc1ccc(C(=O)NO)cc1NCc1ccc(OCc2cn(CCCCCC(=O)Nc3cccc4c3C(=O)N(C3CCC(=O)NC3=O)C4=O)nn2)cc1 (stereo not drawn)
med

Which class is correct for the following molecule? COc1ccc(C(=O)NO)cc1NC(=O)c1ccc(CNC(=O)CCCCCCCNC(=O)CC23CC4CC(CC(C4)C2)C3)cc1
lo

Which class is correct for the following molecule? COc1ccc(C(=O)NO)cc1NC(=O)c1ccc(NC(=O)CCCCCCCNC(=O)CC23CC4CC(CC(C4)C2)C3)cc1
med

Which class is correct for the following molecule? O=C(COc1ccc(CNc2cc(C(=O)NO)ccc2Cl)cc1)NCCCCCNC(=O)CC12CC3CC(CC(C3)C1)C2
hi

----------
Target: HDAC6 (Homo sapiens, UniProt Q9UBN7)
Sequence (Q9UBN7 whole entry): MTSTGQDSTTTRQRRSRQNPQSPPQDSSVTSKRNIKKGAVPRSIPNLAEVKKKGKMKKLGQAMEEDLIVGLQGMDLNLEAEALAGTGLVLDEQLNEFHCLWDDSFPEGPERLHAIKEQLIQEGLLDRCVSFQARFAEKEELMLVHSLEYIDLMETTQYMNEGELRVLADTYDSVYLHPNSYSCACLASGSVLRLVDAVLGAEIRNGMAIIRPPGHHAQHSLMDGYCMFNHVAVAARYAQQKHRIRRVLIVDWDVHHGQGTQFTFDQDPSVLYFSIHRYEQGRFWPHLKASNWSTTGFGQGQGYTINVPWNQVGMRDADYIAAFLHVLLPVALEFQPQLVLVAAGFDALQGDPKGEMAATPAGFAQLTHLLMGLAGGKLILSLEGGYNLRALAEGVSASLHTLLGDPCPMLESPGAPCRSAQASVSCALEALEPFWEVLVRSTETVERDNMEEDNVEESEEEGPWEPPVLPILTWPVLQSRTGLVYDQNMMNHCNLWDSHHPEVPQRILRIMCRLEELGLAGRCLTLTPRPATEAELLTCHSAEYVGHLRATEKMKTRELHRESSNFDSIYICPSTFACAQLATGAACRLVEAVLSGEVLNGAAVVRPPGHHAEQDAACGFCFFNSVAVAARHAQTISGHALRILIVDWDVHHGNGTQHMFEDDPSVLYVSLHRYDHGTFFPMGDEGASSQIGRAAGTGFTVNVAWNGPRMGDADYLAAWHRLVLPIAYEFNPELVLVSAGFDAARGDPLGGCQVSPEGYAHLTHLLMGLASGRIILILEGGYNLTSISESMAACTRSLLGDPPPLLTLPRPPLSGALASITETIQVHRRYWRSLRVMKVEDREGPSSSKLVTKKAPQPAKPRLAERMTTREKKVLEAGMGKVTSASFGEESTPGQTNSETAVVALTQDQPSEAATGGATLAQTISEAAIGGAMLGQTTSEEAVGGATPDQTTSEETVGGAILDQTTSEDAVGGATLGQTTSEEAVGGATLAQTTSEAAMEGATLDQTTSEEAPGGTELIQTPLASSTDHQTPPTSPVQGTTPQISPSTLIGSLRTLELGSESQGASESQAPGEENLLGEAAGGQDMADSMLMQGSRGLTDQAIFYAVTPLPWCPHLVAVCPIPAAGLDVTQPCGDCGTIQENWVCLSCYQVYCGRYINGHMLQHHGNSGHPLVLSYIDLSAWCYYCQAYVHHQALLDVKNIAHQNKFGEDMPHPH
Assay: In vitro HDAC inhibitory activity assay, recombinant HDAC6 (fluorogenic substrate ZMAL)
Assay type: biochemical
Design: purchased BPS Biosciences
Details: Table 1, PROTACs; read-out: HDAC6 IC50
For each of the molecules below, state its IC50.
Express it in nM; write the number only.

# get_value(readout= IC50, system= HDAC6 (Homo sapiens, UniProt Q9UBN7)) for COc1ccc(C(=O)NO)cc1NC(=O)c1ccc(NC(=O)CCCCCCC(=O)N[C@H](C(=O)N2C[C@H](O)C[C@H]2C(=O)NCc2ccc(-c3scnc3C)cc2)C(C)(C)C)cc1
310

# get_value(readout= IC50, system= HDAC6 (Homo sapiens, UniProt Q9UBN7)) for O=C1CCC(N2C(=O)c3cccc(NC(=O)CCCCCn4cc(COc5ccc(CNc6cc(C(=O)NO)ccc6Cl)cc5)nn4)c3C2=O)C(=O)N1 (centres unmarked)
1300

# get_value(readout= IC50, system= HDAC6 (Homo sapiens, UniProt Q9UBN7)) for COc1ccc(C(=O)NO)cc1NC(=O)c1ccc(NC(=O)CCCCCCCNC(=O)CC23CC4CC(CC(C4)C2)C3)cc1
820

# get_value(readout= IC50, system= HDAC6 (Homo sapiens, UniProt Q9UBN7)) for COc1ccc(C(=O)NO)cc1NC(=O)c1ccc(NC(=O)CCCCCNC(=O)CC23CC4CC(CC(C4)C2)C3)cc1
250

# get_value(readout= IC50, system= HDAC6 (Homo sapiens, UniProt Q9UBN7)) for COc1ccc(C(=O)NO)cc1NC(=O)c1ccc(CNC(=O)CCCCCCCNC(=O)CC23CC4CC(CC(C4)C2)C3)cc1
370
